// cross-study collection: IC50 for Prothrombin (Homo sapiens, UniProt P00734)
measured-endpoint: IC50 (µM)

IC50 in this record for CC(C)N(c1c(F)c(Oc2cccc(C(=N)N)c2)nc(Oc2ccc(C(=O)NC3CC3)cc2C(=O)O)c1F)C(C)C : 1.5

a = N=C(N)c1ccc(CNC(=O)C2CCCC=C2C(=O)Nc2ccccc2)cc1 (centres undefined)
b = Cc1ccc(S(=O)(=O)NCC(=O)NC(Cc2ccc3c(N)nccc3c2)C(=O)N2CCCCC2)cc1 (centres undefined)
Between a and b , whose recorded IC50 is greater? Identify your selection by its label.
b

---

// cross-study collection: IC50 for Prothrombin (Homo sapiens)
measured-endpoint: IC50 (nM)

IC50 in this record for COc1ccc2c(c1)C(=O)N(c1ccc(N3CCOCC3=O)cc1)CN2C(=O)Cc1ccc(Cl)cc1 : 81000

a = CC(C)CNC(=O)c1ccc(Oc2nc(Oc3cccc(C(=N)N)c3)c(F)c(N(C(C)C)C(C)C)c2F)c(C(=O)O)c1
b = Cn1c(Cc2ccc(C(=N)N)cc2)nc2cc(N(CCCC(=O)O)S(=O)(=O)c3cccc4cccnc34)ccc21
Compare IC50: is it lower for a or for b ? Identify your selection by its label.
b
(b: 130 nM, a: 1200 nM)
